IC50 by entry:
tested on: TF1 JAK2 V617F STAT5 reporter; experiment: Cellular TF1 STAT5 assay (luciferase reporter), JAK2 V617F; type: cell-based; settings: TF1 JAK2 V617F, read-out: Cell PD TF1 V617F STAT5 (IC50)

Consider the worked cases shown below.
CNC(=O)c1nnc(NC(=O)C2CC2)cc1Nc1cc(F)cc(-c2ccc(C(=O)N(C)Cc3ccn(C)n3)nc2)c1OC	0.05 to 0.5 µM
CNC(=O)c1nnc(NC(=O)C2CC2)cc1Nc1cccc(-c2ccc(C(=O)NCc3cccn(C)c3=O)cc2)c1OC	0.5 to 5 µM
CNC(=O)c1nnc(NC(=O)C2CC2)cc1Nc1cccc(-c2nnc(C3CN(Cc4cccc(C)n4)C3)o2)c1OC	5 to 100 µM
[2H]C([2H])([2H])NC(=O)c1nnc(NC(=O)C2CC2)cc1Nc1cccc(-c2cnc(C(=O)N(C)Cc3ccn(C)n3)nc2)c1OC	0.5 to 5 µM
CNC(=O)c1nnc(NC(=O)C2CC2)cc1Nc1ccc(C)c(-c2ccc(C(=O)N(C)Cc3ccn(C)n3)nc2)c1OC	0.05 to 0.5 µM

Field request: IC50 | item: `CNC(=O)c1nnc(NC(=O)C2CC2)cc1Nc1cccc(-c2ccc(C(=O)N(C)Cc3cc(C#N)ccn3)c(F)c2)c1OC` 0.5 to 5 µM

Entry to check: CNC(=O)c1nnc(NC(=O)C2CC2)cc1Nc1cccc(-c2ccc(C(=O)N(C)C[C@H]3Cc4ccccc4CO3)nc2)c1OC (single isomer, unassigned) 5 to 100 µM

Queued: `CNC(=O)c1nnc(NC(=O)C2CC2)cc1Nc1cccc(-c2cc(C3CN(Cc4cccc(C#N)n4)C3)nn2C)c1OC` 5 to 100 µM

Again, but for `CNC(=O)c1nnc(NC(=O)C2CC2)cc1Nc1cccc(-c2ccc(C(=O)N(C)Cc3ccccn3)nc2)c1OC` 0.5 to 5 µM

Would you mind doing CNC(=O)c1nnc(NC(=O)C2CC2)cc1Nc1cccc(-c2ccc(C(=O)N(C)[C@H](C)c3nc(C)no3)nc2)c1OC (single isomer, unassigned) as well? 0.5 to 5 µM

Entry to check: `CNC(=O)c1cnc(NC(=O)C2CC2)cc1Nc1cccc(-c2cnn(C3CN(Cc4ccccn4)C3)c2)c1OC` 0.5 to 5 µM

Moving on to the next compound: `CNC(=O)c1nnc(NC(=O)C2CC2)cc1Nc1cccc(-c2cnn(C3CN(CC4(C#N)CC4)C3)c2)c1OC` 5 to 100 µM

Next entry: `CNC(=O)c1nnc(NC(=O)C2CC2)cc1Nc1cccc(-c2ccc(C(=O)N(C)Cc3nccc(C#N)c3F)nc2)c1OC` 5 to 100 µM

* * *

Listed here: items and their measured Kd.
target: JAK2 JH2 WT (V536-D812) [W659A, W777A, F794H solubilizing mutations] (Homo sapiens, UniProt O60674, F794H/W659A/W777A); construct: **JAK2 JH2 WT (V536-D812) [W659A, W777A, F794H solubilizing mutations]; C-thrombin-avi-His6; thrombin cleavage site (C); His6 (C); purchased Biortus; experiment: Surface Plasmon Resonance (SPR) binding assay, JAK2 JH2 domain
Sequence (O60674 536-812 W659A/W777A/F794H): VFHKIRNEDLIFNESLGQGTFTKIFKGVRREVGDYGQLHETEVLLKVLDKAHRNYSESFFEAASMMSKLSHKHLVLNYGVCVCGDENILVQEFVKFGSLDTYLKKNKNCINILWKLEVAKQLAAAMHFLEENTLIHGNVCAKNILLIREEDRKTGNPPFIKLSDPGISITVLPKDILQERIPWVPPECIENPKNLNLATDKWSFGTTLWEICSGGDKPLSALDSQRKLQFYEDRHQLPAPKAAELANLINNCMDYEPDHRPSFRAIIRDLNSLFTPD

Some solved entries appear below for comparison.
CNC(=O)c1nnc(NC(=O)C2CC2)cc1Nc1cccc(-c2cnc(C3CN(Cc4cccc(C#N)n4)C3)nc2)c1OC [Compound 305]	0.01 to 10 nM
CNC(=O)c1nnc(NC(=O)C2CC2)cc1Nc1cccc(-c2ccc(C(=O)N(C)Cc3cnc(C)s3)nc2)c1OC [Compound 211]	0.01 to 10 nM
CNC(=O)c1nnc(NC(=O)C2CC2)cc1Nc1ccc(C)c(-c2ccc(C3CN(Cc4ccccn4)C3)nc2)c1OC [Compound 322]	10 to 50 nM
CNC(=O)c1nnc(NC(=O)C2CC2)cc1Nc1cccc(-c2cnn(C3CN(Cc4cccc(C#CC5CC5)n4)C3)c2)c1OC [Compound 241]	0.01 to 10 nM
CNC(=O)c1nnc(NC(=O)C2CC2)cc1Nc1cccc(-c2cnn([C@@H]3CCN(Cc4ccccn4)C3)c2)c1OC (single isomer, unassigned) [Compound 334]	0.01 to 10 nM

Any idea what its Kd is? The compound is CNC(=O)c1nnc(NC(=O)C2CC2)cc1Nc1cccc(-c2cnn(C3CN(Cc4cccc5ncnn45)C3)c2)c1OC [Compound 248] 0.01 to 10 nM
